Recorded values, source ChEMBL document CHEMBL1149354.

# assay_target: Metabotropic glutamate receptor 5 (Homo sapiens, UniProt P41594)
# Sequence (P41594 whole entry): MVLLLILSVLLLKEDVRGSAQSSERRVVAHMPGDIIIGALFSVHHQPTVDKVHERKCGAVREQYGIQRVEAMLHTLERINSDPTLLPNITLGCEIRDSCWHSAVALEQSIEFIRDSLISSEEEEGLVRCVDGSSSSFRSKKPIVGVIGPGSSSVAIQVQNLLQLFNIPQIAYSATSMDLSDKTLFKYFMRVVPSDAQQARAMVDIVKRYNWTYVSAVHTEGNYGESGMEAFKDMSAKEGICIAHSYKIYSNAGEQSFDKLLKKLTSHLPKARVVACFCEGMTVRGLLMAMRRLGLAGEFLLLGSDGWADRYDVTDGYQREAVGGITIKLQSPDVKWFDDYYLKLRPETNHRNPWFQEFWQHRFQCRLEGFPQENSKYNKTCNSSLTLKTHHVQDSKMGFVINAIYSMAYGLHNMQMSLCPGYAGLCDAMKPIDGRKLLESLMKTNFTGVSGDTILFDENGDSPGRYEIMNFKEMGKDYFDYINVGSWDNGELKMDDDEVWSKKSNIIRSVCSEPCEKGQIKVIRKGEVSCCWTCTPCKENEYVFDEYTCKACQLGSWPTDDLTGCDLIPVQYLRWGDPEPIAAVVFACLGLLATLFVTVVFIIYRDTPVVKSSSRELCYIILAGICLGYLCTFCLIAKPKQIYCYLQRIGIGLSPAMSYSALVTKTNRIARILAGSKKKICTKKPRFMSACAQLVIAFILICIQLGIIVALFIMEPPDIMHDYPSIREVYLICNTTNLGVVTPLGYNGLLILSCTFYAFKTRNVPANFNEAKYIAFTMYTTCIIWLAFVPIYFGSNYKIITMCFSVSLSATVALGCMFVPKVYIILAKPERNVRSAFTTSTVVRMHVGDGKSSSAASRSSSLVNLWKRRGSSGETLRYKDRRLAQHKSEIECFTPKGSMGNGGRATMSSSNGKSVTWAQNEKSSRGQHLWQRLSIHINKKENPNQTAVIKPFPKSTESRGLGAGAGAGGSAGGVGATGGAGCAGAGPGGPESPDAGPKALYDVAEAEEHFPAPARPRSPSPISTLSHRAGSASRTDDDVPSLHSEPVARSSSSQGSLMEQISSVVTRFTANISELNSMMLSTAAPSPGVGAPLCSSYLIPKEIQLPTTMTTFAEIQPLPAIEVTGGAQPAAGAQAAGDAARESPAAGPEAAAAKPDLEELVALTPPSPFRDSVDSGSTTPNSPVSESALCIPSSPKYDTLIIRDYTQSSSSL
# method_description: Activity at human mGluR5 assessed as effect on glutamate-induced calcium ion mobilization by FLIPR
property_measured: IC50 (nM)
Just the number please, in nM, no unit attached.

Query: Name the reported IC50 value associated with the compound `Cc1cccc(C#CCOc2cc(=O)[nH]c3ccccc23)n1`
Response: 825

Query: Name the reported IC50 value associated with the compound `COC(=O)c1cncc(OCC#Cc2cccc(C)n2)c1`
Response: 1490

Query: Name the reported IC50 value associated with the compound `Cc1cccc(C#CCOc2ccc(Cl)c(Cl)c2)n1`
Response: 15

Query: Name the reported IC50 value associated with the compound `Cc1cccc(C#CCOc2ccc(Cl)cc2)n1`
Response: 102

Query: Name the reported IC50 value associated with the compound CCC(O)(CO)c1cc(F)cc(OCC#Cc2ccccn2)c1 (centres undefined)
Response: 300

Query: Name the reported IC50 value associated with the compound `Cc1cccc(C#CCOc2cccc(Cl)c2)n1`
Response: 101

Query: Name the reported IC50 value associated with the compound `Cc1ccc(OCC#Cc2cccc(C)n2)cc1`
Response: 115

Query: Name the reported IC50 value associated with the compound `Cc1cccc(C#CCOc2ccc3c(c2)CCCC3)n1`
Response: 36

Query: Name the reported IC50 value associated with the compound `Cc1cccc(C#CCOc2cccc([N+](=O)[O-])c2)n1`
Response: 416

Query: Name the reported IC50 value associated with the compound `COc1ccc(OCC#Cc2cccc(C)n2)cc1`
Response: 455

Query: Name the reported IC50 value associated with the compound `COc1cccc(OCC#Cc2cccc(C)n2)c1`
Response: 397

Query: Name the reported IC50 value associated with the compound `COc1cccc(OCC#Cc2ccccn2)c1`
Response: 1540

Query: Name the reported IC50 value associated with the compound `COc1cccc(OCC#Cc2ccc(C)cn2)c1`
Response: 7930

Query: Name the reported IC50 value associated with the compound `Cc1cccc(C#CCOc2ccc(C(C)C)cc2)n1`
Response: 83

Query: Name the reported IC50 value associated with the compound `Cc1ccc(OCC#Cc2cccc(C)n2)cn1`
Response: 2490
